assay: Displacement of [3H]BMB from Sprague-Dawley rat brain myelin fractions; format: tissue-based
pKi: −log10 of the molar value.
reported_metric: pKi

// solved cases for pKi follow
CN(C)c1ccc(/C=C/c2ccc(N)cc2)cc1: 6.92
Nc1ccc(/C=C/c2ccc(I)cc2)cc1: 6.31

[A] Nc1ccc(/C=C/c2ccc(N)cc2)cc1
[B] CNc1ccc(/C=C/c2ccc(N)cc2)cc1
Dear colleague, could you let me know whether A or B has the lower recorded pKi? Thanks. Could you answer with the label of the item you picked?
A

###

test: Partition coefficient, log P in 1-octanol/phosphate buffer at pH 7.40; assay type: physicochemical; details: pH 7.4
reported_metric: logD
Just the number, please, no unit attached.

I have this compound here, Nc1ccc(/C=C/c2ccc([125I])cc2)cc1 , and I need its recorded logD.
2.5
